Data provenance: patent US20070073039A1

- Test system: HCV
- measurement protocol: HCV focus reduction assay
- Assay type: cell-based, Hepatitis C virus (JFH-1)
- reported conditions: 72 h; working concentration 18.4-27.5 μM per peptide; Mock 51
property label: Focus Reduction (72 h)
Numbers only.

// for each sequence in input: emit Focus Reduction (72 h)
1. WICEVLSDFK [^N-10mer]
2. SWLRDIWDWICEVL [^C-14mer]
3. WDWICEVLSDFK [^N-12mer]

Reply:
1: 45; 2: 0; 3: 38

###

- Tested on: HCV
- measurement protocol: HCV focus reduction assay
- Type: cell-based, Hepatitis C virus (JFH-1)
- reported conditions: HCV foci; 1/3 of final concentration (6 μM)
property label: 1/3 diluted
Answers are plain numbers.

KFDSLVECIWDWIDRLWS (OTHER INFORMATION: A synthetic peptide)
50
KWLCRIWSWISDVLDDFE (OTHER INFORMATION: A synthetic peptide)
8
SIWRDWVDLICEFLSDWK (OTHER INFORMATION: A synthetic peptide)
31

In the following, a different sequence is considered.
So for SWLRPIWPWICEVLSDFK (OTHER INFORMATION: A synthetic peptide) , the logged 1/3 diluted turned out to be 21

###

- Tested on: HCV
- measurement protocol: Intracellular HCV RNA by real time RT-QPCR after infection of Huh-7.5.1 cells with and without peptide
- Format: cell-based, Hepatitis C virus (JFH-1)
- reported conditions: 24 h; 25 μM; Huh-7.5.1 cells, MOI 0.1; normalized to GAPDH
property label: HCV RNA fold inhibition 24 h 25 μM (fold)
One number for each entry, in fold.

ATQTFLATCINGVCWTVY [Peptide 12]
8
CTMLVCGDDLVVICESAG [Peptide 2]
86
GSATLCSALYVGDLCGSV [Peptide 5]
26
TLVFDITKLLLAIFGPLW [Peptide 6]
24
IFLLALLSCLTVPASAYQ [Peptide 8]
18

// for each sequence in input: emit HCV RNA fold inhibition 24 h 25 μM
1. WMMLLISQAEAALENLVI [Peptide 4]
2. ALYVGDLCGSVFLVGQLF [Peptide 7]
3. DWICEVLSDFKTWLKAKL [Peptide 13]
4. YLYGVGSSIASWAIKWEY [Peptide 11]

Reply:
[27, 20, 7, 9]

So for IMDMIAGAHWGVLAGIAY [Peptide 9] , the logged HCV RNA fold inhibition 24 h 25 μM turned out to be 10

###

- System: HCV
- measurement protocol: HCV focus reduction assay
- Format: cell-based, Hepatitis C virus (JFH-1)
- reported conditions: HCV foci; final concentration 17-20 μM; MOCK 53 ± 4
- Method: To identify peptides that display antiviral activity against HCV infection, the peptide library was screened by an HCV focus reduction assay. The peptides were constituted in 100% DMSO at a final concentration 10 mg/mL, and stored in −20° C. […] The numbers of HCV foci were counted under fluorescent microscopy and the result is expressed as percentage (%) of mock with no peptide treatment but containing solvent 0.5% DMSO. […]
property label: No dilution
Give bare numbers.

KWLCRIWSWISDVLDDFE (OTHER INFORMATION: A synthetic peptide)
0
KFDSLVECIWDWIDRLWS (OTHER INFORMATION: A synthetic peptide)
1
SIWRDWVDLICEFLSDWK (OTHER INFORMATION: A synthetic peptide)
0

In the following, a different sequence is considered.
So for SWLRPIWPWICEVLSDFK (OTHER INFORMATION: A synthetic peptide) , the logged No dilution turned out to be 9
